Reference for the values: patent US20260070887A1

Listed here: items and their measured IC50.
Target: KIF18A (Homo sapiens (Human))
Sequence (Q8NI77 whole entry): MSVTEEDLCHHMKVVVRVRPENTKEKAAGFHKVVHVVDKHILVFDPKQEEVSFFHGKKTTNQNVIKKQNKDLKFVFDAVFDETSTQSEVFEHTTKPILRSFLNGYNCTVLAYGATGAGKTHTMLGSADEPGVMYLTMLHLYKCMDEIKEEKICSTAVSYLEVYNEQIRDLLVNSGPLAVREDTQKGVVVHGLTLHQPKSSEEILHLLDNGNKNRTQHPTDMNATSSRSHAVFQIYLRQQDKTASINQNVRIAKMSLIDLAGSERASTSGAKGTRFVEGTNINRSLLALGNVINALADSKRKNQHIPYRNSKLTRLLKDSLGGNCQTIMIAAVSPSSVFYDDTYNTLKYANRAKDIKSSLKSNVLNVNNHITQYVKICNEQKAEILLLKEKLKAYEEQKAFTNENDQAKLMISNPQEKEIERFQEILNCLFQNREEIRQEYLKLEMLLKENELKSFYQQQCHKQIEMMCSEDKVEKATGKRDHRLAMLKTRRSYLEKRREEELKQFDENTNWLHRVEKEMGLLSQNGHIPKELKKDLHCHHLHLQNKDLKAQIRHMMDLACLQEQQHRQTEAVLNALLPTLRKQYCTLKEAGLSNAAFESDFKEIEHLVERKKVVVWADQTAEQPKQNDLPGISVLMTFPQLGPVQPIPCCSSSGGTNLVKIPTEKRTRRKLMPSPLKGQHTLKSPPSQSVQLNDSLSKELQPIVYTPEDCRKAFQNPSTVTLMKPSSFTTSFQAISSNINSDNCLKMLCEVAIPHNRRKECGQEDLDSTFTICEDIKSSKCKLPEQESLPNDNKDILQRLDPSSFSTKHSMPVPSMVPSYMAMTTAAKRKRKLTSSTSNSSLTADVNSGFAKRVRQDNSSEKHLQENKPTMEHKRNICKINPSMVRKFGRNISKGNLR
Sequence (P02550 whole entry partner): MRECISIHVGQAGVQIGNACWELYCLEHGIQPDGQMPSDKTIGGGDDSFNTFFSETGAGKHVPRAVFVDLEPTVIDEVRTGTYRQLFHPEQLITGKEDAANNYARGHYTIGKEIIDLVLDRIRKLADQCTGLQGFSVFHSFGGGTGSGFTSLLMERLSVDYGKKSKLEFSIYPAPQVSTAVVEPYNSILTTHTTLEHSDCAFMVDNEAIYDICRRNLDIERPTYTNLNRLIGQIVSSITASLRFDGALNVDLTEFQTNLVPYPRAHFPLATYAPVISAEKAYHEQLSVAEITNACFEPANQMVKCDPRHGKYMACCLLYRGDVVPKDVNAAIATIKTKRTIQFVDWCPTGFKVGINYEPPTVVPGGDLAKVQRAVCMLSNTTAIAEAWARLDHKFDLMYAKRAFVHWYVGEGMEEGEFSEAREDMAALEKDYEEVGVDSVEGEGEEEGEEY
Sequence (P02554 whole entry partner): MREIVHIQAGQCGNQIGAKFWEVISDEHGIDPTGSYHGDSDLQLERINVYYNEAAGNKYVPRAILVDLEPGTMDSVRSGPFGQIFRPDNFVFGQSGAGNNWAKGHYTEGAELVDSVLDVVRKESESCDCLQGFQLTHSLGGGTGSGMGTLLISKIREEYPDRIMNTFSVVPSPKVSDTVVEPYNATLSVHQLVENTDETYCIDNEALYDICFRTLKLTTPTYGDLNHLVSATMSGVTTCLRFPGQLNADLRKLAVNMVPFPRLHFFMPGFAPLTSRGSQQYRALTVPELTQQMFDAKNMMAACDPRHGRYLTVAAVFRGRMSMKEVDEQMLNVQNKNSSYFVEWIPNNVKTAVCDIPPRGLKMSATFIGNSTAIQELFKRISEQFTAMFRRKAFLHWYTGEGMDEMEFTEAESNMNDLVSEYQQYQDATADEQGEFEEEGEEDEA
Experiment: KIF18A ATPase activity under tubulin stimulation (ADP-Glo assay)
Type: biochemical
Settings: KIF18A 30 nM, ATP 150 μM, pig microtubules
Procedure: This experiment assesses the inhibitory effect of the compounds of the present disclosure on the KIF18A target according to the IC50 values by measuring the KIF18A ATPase activity under tubulin stimulation with the presence of the compounds. • 1. […] Luminescence values were measured using the EnVision Xcite Multilabel Reader (PerkinElmer, 2105-0020).
Measurement name: IC50

[
  {
    "Item smiles": "O=C(Nc1cccc2c1ccn2CC1(F)CC1)c1ccc(NS(=O)(=O)CCO)cc1N1CCC2(CC1)CC2",
    "Data value": "50 to 500 nM"
  },
  {
    "Item smiles": "CCOc1ccc(NC(=O)c2ccc(NS(=O)(=O)CCO)cc2N2CCC3(CC2)CC3)c2cc3n(c12)CC(C)(C)OC3",
    "Data value": "50 to 500 nM"
  },
  {
    "Item smiles": "CC1(C)Cc2nc3c(NC(=O)c4ccc(NS(=O)(=O)CCO)cc4N4CCC5(CC4)CC5)cccc3n2C1",
    "Data value": "50 to 500 nM"
  },
  {
    "Item smiles": "O=C(Nc1ccnc2c1cc1n2CCC(F)(F)C1)c1ccc(NS(=O)(=O)CCO)cc1N1CCC2(CC1)CC2",
    "Data value": "≤ 50 nM"
  },
  {
    "Item smiles": "CC1(C)Cn2c(cc3c(NC(=O)c4ccc(NS(=O)(=O)CCO)cc4N4CCC5(CC4)CC5)ccc(C#N)c32)CO1",
    "Data value": "≤ 50 nM"
  },
  {
    "Item smiles": "CC1(C)Cn2c(cc3c(NC(=O)c4ccc(NS(=O)(=O)CCO)cc4N4CCC(=C(F)F)CC4)cccc32)CO1",
    "Data value": "50 to 500 nM"
  },
  {
    "Item smiles": "COc1ccc(NC(=O)c2ccc(NS(=O)(=O)CCO)cc2N2CCC3(CC2)CC3)c2nc3n(c12)CC(C)(C)OC3",
    "Data value": "50 to 500 nM"
  },
  {
    "Item smiles": "O=C(Nc1cccc2c1cc(Cl)n2CC1CC1)c1ccc(NS(=O)(=O)CCO)cc1N1CCC2(CC1)CC2",
    "Data value": "50 to 500 nM"
  },
  {
    "Item smiles": "CCNC(=O)c1ccc(NC(=O)c2ccc(NS(=O)(=O)CCO)cc2N2CCC(=C(F)F)CC2)c2cc3n(c12)CC(C)(C)OC3",
    "Data value": "50 to 500 nM"
  },
  {
    "Item smiles": "O=C(Nc1ccc(F)c2c1ccn2CC1CC1)c1ccc(NS(=O)(=O)CCO)cc1N1CCC2(CC1)CC2",
    "Data value": "50 to 500 nM"
  },
  {
    "Item smiles": "O=C(Nc1cccc2c1cc1n2CCOC1)c1ccc(NS(=O)(=O)CCO)cc1N1CCC(=C(F)F)CC1",
    "Data value": "≤ 50 nM"
  },
  {
    "Item smiles": "CN1CCc2c(NC(=O)c3ccc(NS(=O)(=O)CCO)cc3N3CCC4(CC3)CC4)cccc21",
    "Data value": "50 to 500 nM"
  },
  {
    "Item smiles": "N#Cc1ccc(NC(=O)c2ccc(NS(=O)(=O)CCO)cc2N2CCC3(CC2)CC3)c2cc3n(c12)CCOC3",
    "Data value": "≤ 50 nM"
  },
  {
    "Item smiles": "O=C(Nc1nccc2c1cc1n2CCOC1)c1ccc(NS(=O)(=O)CCO)cc1N1CCC2(CC1)CC2",
    "Data value": "> 5000 nM"
  }
]

###

Reported values of pIC50 for individual entries
test system: HCT116 cells; assay: HCT116 cell anti-proliferation assay; type: cell-based; conditions: 6 days, Cell Titer-Glo
pIC50: −log10 of the molar value.

[
  {
    "Molecule": "CNc1cc(NS(=O)(=O)CCO)cc(N2CCC3(CC2)CC3)c1C(=O)Nc1cc(C)nc(N2CCC(F)(F)CC2)n1 [Example 4]",
    "Qual": "=",
    "pIC50": 5.59
  },
  {
    "Molecule": "COc1ccc(NC(=O)c2ccc(NS(=O)(=O)CCO)cc2N2CCC(=C(F)F)CC2)c2cc3n(c12)CCOC3 [Compound 405]",
    "Qual": "<",
    "pIC50": 5.00
  },
  {
    "Molecule": "COC1c2cc3c(NC(=O)c4ccc(NS(=O)(=O)CCO)cc4N4CCC5(CC4)CC5)cccc3n2CCC1(F)F (single isomer, unassigned) [Example 340-P2]",
    "Qual": "=",
    "pIC50": 5.07
  },
  {
    "Molecule": "O=C(Nc1cccc2c1cc1n2CCOC1)c1ccc(NS(=O)(=O)CCO)cc1N1CCC(=C(F)F)CC1 [Example 319]",
    "Qual": "<",
    "pIC50": 5.00
  }
]

###

// values below are reported IC50
target: KIF18A (Homo sapiens (Human))

[
  {
    "Compound": "O=C(Nc1cccc2nn(CC3CC3)cc12)c1ccc(NS(=O)(=O)CCO)cc1N1CCC2(CC1)CC2",
    "IC50": "≤ 50 nM"
  },
  {
    "Compound": "COc1ccc(NC(=O)c2ccc(NS(=O)(=O)CCO)cc2N2CCC(=C(F)F)CC2)c2cc3n(c12)CCC(F)(F)C3",
    "IC50": "50 to 500 nM"
  },
  {
    "Compound": "COc1ccc(NC(=O)c2ccc(NS(=O)(=O)CCO)cc2N2CCC(=C(F)F)CC2)c2cc3n(c12)CC(C)(C)OC3",
    "IC50": "50 to 500 nM"
  },
  {
    "Compound": "CC1OCCn2c1cc1c(NC(=O)c3ccc(NS(=O)(=O)CCO)cc3N3CCC4(CC3)CC4)cccc12 (stereo not shown) [Compound 311-P1]",
    "IC50": "≤ 50 nM"
  },
  {
    "Compound": "Cc1ccc(NC(=O)c2ccc(NS(=O)(=O)CCO)cc2N2CCC(=C(F)F)CC2)c2cc3n(c12)CC(C)(C)OC3",
    "IC50": "50 to 500 nM"
  },
  {
    "Compound": "COc1ccc(NC(=O)c2ccc(NS(=O)(=O)CCO)cc2N2CCC3(CC2)CC3)c2cc3n(c12)CCC(F)(F)C3OC (stereo not shown)",
    "IC50": "50 to 500 nM"
  },
  {
    "Compound": "O=C(Nc1cccc2c1cc1n2CCCC1)c1ccc(NS(=O)(=O)CCO)cc1N1CCC2(CC1)CC2",
    "IC50": "≤ 50 nM"
  }
]

###

# reported IC50; entries follow
biological target: KIF18A (Homo sapiens (Human))
Measurement name: IC50

[
  {
    "Compound": "CN1CCCc2c(NC(=O)c3ccc(NS(=O)(=O)CCO)cc3N3CCC4(CC3)CC4)ccnc21",
    "Subject of test": "KIF18A (Homo sapiens (Human))",
    "Measurement name": "IC50",
    "Data value": "50 to 500 nM"
  },
  {
    "Compound": "CCNC(=O)c1ccc(NC(=O)c2ccc(NS(=O)(=O)CCO)cc2N2CCC3(CC2)CC3)c2cc3n(c12)CC(C)(C)OC3",
    "Subject of test": "KIF18A (Homo sapiens (Human))",
    "Measurement name": "IC50",
    "Data value": "50 to 500 nM"
  },
  {
    "Compound": "CC1Cn2c(cc3c(NC(=O)c4ccc(NS(=O)(=O)CCO)cc4N4CCC5(CC4)CC5)cccc32)C(C)O1 (single isomer, unassigned) [Compound 312-P3]",
    "Subject of test": "KIF18A (Homo sapiens (Human))",
    "Measurement name": "IC50",
    "Data value": "50 to 500 nM"
  },
  {
    "Compound": "O=C(Nc1ccc2c(c1)N1CCC(F)(F)CC1CO2)c1ccc(NS(=O)(=O)CCO)cc1N1CCC(=C(F)F)CC1 (stereo not shown)",
    "Subject of test": "KIF18A (Homo sapiens (Human))",
    "Measurement name": "IC50",
    "Data value": "50 to 500 nM"
  },
  {
    "Compound": "O=C(Nc1ccc(OC(F)(F)F)c2c1cc1n2CCC(F)(F)C1)c1ccc(NS(=O)(=O)CCO)cc1N1CCC2(CC1)CC2",
    "Subject of test": "KIF18A (Homo sapiens (Human))",
    "Measurement name": "IC50",
    "Data value": "≤ 50 nM"
  },
  {
    "Compound": "COc1ccc(NC(=O)c2ccc(NS(=O)(=O)CCO)cc2N2CCC(=C(F)F)CC2)c2cc3n(c12)CCOC3",
    "Subject of test": "KIF18A (Homo sapiens (Human))",
    "Measurement name": "IC50",
    "Data value": "≤ 50 nM"
  },
  {
    "Compound": "O=C(Nc1cccc(N2CCC(F)(F)CC2)c1)Nc1ccc(NS(=O)(=O)CCO)cc1N1CCC2(CC1)CC2",
    "Subject of test": "KIF18A (Homo sapiens (Human))",
    "Measurement name": "IC50",
    "Data value": "500 to 5000 nM"
  },
  {
    "Compound": "O=C(Nc1cccc2c1ncn2CC1CC1)c1ccc(NS(=O)(=O)CCO)cc1N1CCC2(CC1)CC2",
    "Subject of test": "KIF18A (Homo sapiens (Human))",
    "Measurement name": "IC50",
    "Data value": "≤ 50 nM"
  },
  {
    "Compound": "O=C(Nc1cccc2c1CCN2CC1CCC1)c1ccc(NS(=O)(=O)CCO)cc1N1CCC2(CC1)CC2",
    "Subject of test": "KIF18A (Homo sapiens (Human))",
    "Measurement name": "IC50",
    "Data value": "50 to 500 nM"
  },
  {
    "Compound": "COC1c2cc3c(NC(=O)c4ccc(NS(=O)(=O)CCO)cc4N4CCC5(CC4)CC5)cccc3n2CCC1(F)F (single isomer, unassigned) [Compound 385-P1]",
    "Subject of test": "KIF18A (Homo sapiens (Human))",
    "Measurement name": "IC50",
    "Data value": "50 to 500 nM"
  }
]
